experimentalSystem: Glycogen synthase kinase-3 alpha (Homo sapiens)
protocolNotes: concentration-response blocking of human GSK3A – biochemical, luminescence, cell-free homogeneous, retest, dose response (AID 463203)
recordedConditions: GSK-3 alpha enzyme, ADP-Glo luminescence, 60 min
The source made the active and inactive calls.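 Rule for the calls: active = more than half of replicate measurements showing over 20% loss of kinase signal relative to plate controls; inconclusive = some but at most half of replicates over 20% loss; inactive = no replicate over 20% signal loss.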
Answer with one of the outcomes given here: active, inactive

molecule | qualitativeLabel
CCOC(=O)CC(C#N)c1c[nH]c2ccccc12 (stereo not drawn) | inactive
O=[N+]([O-])c1cnc2nc(-c3ccncc3)nn2c1O | active

Then there is this molecule:
INPUT: // return assay outcome for "CSc1ncccc1-c1nc2ccccc2[nH]1"
OUTPUT: inactive

* * *

experimentalSystem: Glycogen synthase kinase-3 alpha (Homo sapiens)
protocolNotes: concentration-response blocking of human GSK3A – biochemical, luminescence, cell-free homogeneous, retest, dose response (AID 463203)
recordedConditions: GSK-3 alpha enzyme, ADP-Glo luminescence, 60 min
Activity calls are given as the source filed them.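 Rule for the calls: active = more than half of replicate measurements showing over 20% loss of kinase signal relative to plate controls; inconclusive = some but at most half of replicates over 20% loss; inactive = no replicate over 20% signal loss.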
Allowed answers: active, inactive

Examples with answers:
compound | qualitativeLabel
O=Nc1c(-c2c(O)[nH]c3cc(Br)ccc23)[nH]c2ccccc12 | active
COc1cc(SC)ccc1C(=O)Nc1nc(C)cc(C)n1 | inactive

INPUT: Fill in: this test's call for CCOCCOC(=O)c1[nH]c2c(c1C)C(=O)CC(c1cc(OC)c(OC)c(OC)c1)C2 (stereo unspecified) is ___
OUTPUT: inactive

INPUT: // return assay outcome for "O=C(N/N=C/c1cccnc1)c1cccc(S(=O)(=O)N2CCCC2)c1"
OUTPUT: inactive

Data credit: PubChem BioAssay AID463203
